test system: Pythium ultimum; experiment: Pythium ultimum in vitro Fungitoxicity Assay in liquid culture; assay type: cell-based, Pythium ultimum (ATCC 26083); details: Globisporangium ultimum; mycelial dry weight, 48 h at 25° C., shaking at 60 rpm; read-out: EC 50
Quick reference for EC50 among some compounds
Give the quantity in µg/mL, number only.

Below, 5 compounds whose answers are already recorded.
# compound, EC50, µg/mL
data = [
    ("CCCCCCCCNC(=O)/C=C\\SC(=O)/C=C/c1ccc(C(F)(F)F)cc1 [Compound 70]", 5),
    ("CCCCCCCCNC(=O)/C=C\\SC(=O)c1nccc2ccccc12 [Compound 73]", 8.4),
    ("CCCCCCCCNC(=O)/C=C\\SC(=O)C1CCc2ccccc2C1 (stereo not drawn) [Compound 74]", 5),
    ("CCCCCCCCNC(=O)/C=C\\SC(=O)CC(C)c1ccccc1 (stereo not drawn) [Compound 78]", 23.9),
    ("CCCCCCCCNC(=O)/C=C\\SCn1cncn1 [Compound 7]", 50),
]

The recorded EC50 for entry CCCCCCCCNC(=O)/C=C\SC(=O)c1ccc(C)cc1C [Compound 43] equals 5.2

The recorded EC50 for entry CCCCCCCCNC(=O)/C=C\SC(=O)c1ccc2ccccc2n1 [Compound 76] equals 13.2

The recorded EC50 for entry C#CCNC(=O)/C=C\SC(=O)c1ccccc1 [Compound 113] equals 6.9

The recorded EC50 for entry CCCCCCCCNC(=O)/C=C\SC(=O)c1ccc(Br)cn1 [Compound 53] equals 10.2
